- Test system: rumen microorganisms (mixed microbial population of rumen contents)
- procedure text: Enhancement of intraruminal propionic acid production, batch culture fermentation of rumen contents
- Format: cell-based, bovine (rumen-fistulated)
- experimental setup: Table 5; 10 μg/ml; 9 h, 39° C.; 0 μg/ml: 35.5

molecule	% Propionic Acid
CCCCCCC(=O)OCC1(O)OC(C2CC(C)C(C3(C)CCC(C4(C)CCC5(CC(O)C(C)C(C(C)C(OC(=O)CC)C(C)C(=O)O)O5)O4)O3)O2)C(C)CC1C (stereo not shown) [L. C7, laidlomycin heptanoate]	48.1%
CCCCCCCCCCCC(=O)OCC1(O)OC(C2CC(C)C(C3(C)CCC(C4(C)CCC5(CC(O)C(C)C(C(C)C(OC(=O)CC)C(C)C(=O)O)O5)O4)O3)O2)C(C)CC1C (stereo not shown) [L. C12, laidlomycin dodecanoate]	47.7%
CCCCCCCCCC(=O)OCC1(O)OC(C2CC(C)C(C3(C)CCC(C4(C)CCC5(CC(O)C(C)C(C(C)C(OC(=O)CC)C(C)C(=O)O)O5)O4)O3)O2)C(C)CC1C (stereo not shown) [L. C10, laidlomycin decanoate]	46.6%
CCCCCCCC(=O)OCC1(O)OC(C2CC(C)C(C3(C)CCC(C4(C)CCC5(CC(O)C(C)C(C(C)C(OC(=O)CC)C(C)C(=O)O)O5)O4)O3)O2)C(C)CC1C (stereo not shown) [L. C8, laidlomycin octanoate]	47.5%

###

- Tested on: rumen contents (lactic acid accumulation)
- procedure text: Inhibition of lactic acid accumulation, second batch culture fermentation of rumen contents with glucose
- Type: cell-based, bovine (rumen fistulated)
- experimental setup: Table 6; .63 μg/ml; 6 h, 39° C.; 0 μg/ml: 36.65
metric name: Lactic Acid Accumulation (µmol/mL)

compound	u	meas value
CCCCCCCCCC(=O)OCC1(O)OC(C2CC(C)C(C3(C)CCC(C4(C)CCC5(CC(O)C(C)C(C(C)C(OC(=O)CC)C(C)C(=O)O)O5)O4)O3)O2)C(C)CC1C (stereo not shown) [L. C10, laidlomycin decanoate]	µmol/mL	30.78
CCCCCCCCCCCC(=O)OCC1(O)OC(C2CC(C)C(C3(C)CCC(C4(C)CCC5(CC(O)C(C)C(C(C)C(OC(=O)CC)C(C)C(=O)O)O5)O4)O3)O2)C(C)CC1C (stereo not shown) [L. C12, laidlomycin dodecanoate]	µmol/mL	38.01
CCCCCCCC(=O)OCC1(O)OC(C2CC(C)C(C3(C)CCC(C4(C)CCC5(CC(O)C(C)C(C(C)C(OC(=O)CC)C(C)C(=O)O)O5)O4)O3)O2)C(C)CC1C (stereo not shown) [L. C8, laidlomycin octanoate]	µmol/mL	9.41
CCCCCCC(=O)OCC1(O)OC(C2CC(C)C(C3(C)CCC(C4(C)CCC5(CC(O)C(C)C(C(C)C(OC(=O)CC)C(C)C(=O)O)O5)O4)O3)O2)C(C)CC1C (stereo not shown) [L. C7, laidlomycin heptanoate]	µmol/mL	14.12

###

Listing of recorded % Propionic Acid by entry.
- System: rumen microorganisms (mixed microbial population of rumen contents)
- procedure text: Enhancement of intraruminal propionic acid production, batch culture fermentation of rumen contents
- Type: cell-based, bovine (rumen-fistulated)
- experimental setup: Table 5; 20 μg/ml; 9 h, 39° C.; 0 μg/ml: 35.5

compound	% Propionic Acid
CCCCCCCCCCCC(=O)OCC1(O)OC(C2CC(C)C(C3(C)CCC(C4(C)CCC5(CC(O)C(C)C(C(C)C(OC(=O)CC)C(C)C(=O)O)O5)O4)O3)O2)C(C)CC1C (stereo not shown) [L. C12, laidlomycin dodecanoate]	48.0%
CCCCCCCCCC(=O)OCC1(O)OC(C2CC(C)C(C3(C)CCC(C4(C)CCC5(CC(O)C(C)C(C(C)C(OC(=O)CC)C(C)C(=O)O)O5)O4)O3)O2)C(C)CC1C (stereo not shown) [L. C10, laidlomycin decanoate]	48.1%
CCCCCCC(=O)OCC1(O)OC(C2CC(C)C(C3(C)CCC(C4(C)CCC5(CC(O)C(C)C(C(C)C(OC(=O)CC)C(C)C(=O)O)O5)O4)O3)O2)C(C)CC1C (stereo not shown) [L. C7, laidlomycin heptanoate]	47.2%
CCCCCCCC(=O)OCC1(O)OC(C2CC(C)C(C3(C)CCC(C4(C)CCC5(CC(O)C(C)C(C(C)C(OC(=O)CC)C(C)C(=O)O)O5)O4)O3)O2)C(C)CC1C (stereo not shown) [L. C8, laidlomycin octanoate]	49.4%
